measurement label: melting point

Q: Please give measured melting point of the following entry: CC(C)c1ccc(C(=O)NC(C)c2cccs2)cc1 (centres undefined)
Ans: 100 °C

---

Each item that follows carries a reported melting point.

Recorded melting point, per entry:
molecule=COc1cc(Nc2nccc(-c3sc(NCCc4ccccc4)nc3C)n2)cc(OC)c1OC measurement_label="melting point" experimental_result="184 to 186 °C"
molecule=O=C1CC(=O)N(c2ccccc2)c2cc(Cl)ccc2N1CC1CC1 measurement_label="melting point" experimental_result="215 to 218 °C"
molecule=CCOc1ccc(CC(=O)O)cc1OCCCc1cn(-c2ccc(C(F)(F)F)cn2)nc1C(C)C measurement_label="melting point" experimental_result="116 to 117 °C"
molecule=CCOC(=O)CNC(=O)CNCc1ccc(-c2cc3ncnc(Nc4ccc5[nH]ccc5c4)c3s2)cc1 measurement_label="melting point" experimental_result="98 to 115 °C"
molecule=O=Cc1c(Cl)nc(-c2ccccc2)n1Cc1ccc([N+](=O)[O-])cc1 measurement_label="melting point" experimental_result="150 to 152 °C"

Q: Look up melting point of O=C(CCN1CCCCC1)Nc1ccc2c(c1)C(=O)c1cc(NC(=O)CCN3CCCCC3)ccc1C2=O and report it.
Ans: 240 °C

Q: Respond only with melting point recorded for COc1cc(/C(C#N)=C\c2ccc(Cl)c(N)c2)cc(OC)c1OC
Ans: 150 to 151 °C

Q: Report melting point, nothing else, for this molecule: Cc1nnc(-c2cc3c(OCCCN4CCC(c5ccc6c(c5)OCO6)CC4)cccc3o2)o1
Ans: 125 to 127 °C

---

measurement label: melting point

The following molecules have reported results that may help.
molecule=CNC(=O)c1ccccc1Nc1nc(Nc2ccc3c(c2)CCN(CCF)CC3)ncc1Cl measurement_label="melting point" experimental_result="170 to 174 °C"
molecule=Cc1coc(NC(=O)CCCCl)n1 measurement_label="melting point" experimental_result="98 °C"
molecule=CCCCN(C(=O)c1cc(C)oc1C)C1CC(C)(C)NC(C)(C)C1 measurement_label="melting point" experimental_result="78 to 79 °C"

Q: Annotate the molecule O=C(CC1CCCCC1)Nc1ccc2oc3c(c2c1)CCCC3 with its measured melting point.
Ans: 189 to 191 °C

Q: Specify melting point for CC(C)(C)OC(=O)N1CCC(OCc2ccccc2)C1CC(O)Cn1cnc2ccncc2c1=O (centres undefined) and stop.
Ans: 221 °C

Q: Retrieve melting point measured for COC(=O)c1ccc(OCCCCCCc2cccc(OCc3ccccc3)c2OCc2ccccc2)c(Cl)c1 and print it.
Ans: 68 to 69 °C

Q: Complete the entry with melting point for CC(C)c1nn(-c2ccccn2)c(-c2ccc(F)cc2)c1Br
Ans: 98 to 100 °C

Q: Please indicate melting point recorded for O=c1oc2ccccc2c(O)c1C1CC(c2ccc(-c3ccc(OCc4ccc(Br)cc4)cc3)cc2)Cc2ccccc21 (centres undefined)
Ans: 240 °C

Q: Item CCCc1ccc(C2c3c(C)cc(C)c(C)c3OC2(C)C)cc1 (centres undefined) : provide melting point
Ans: 69 to 70 °C

---

measurement label: melting point

molecule=CCCCC(=N)NC(=O)Nc1ccc(Cl)cc1 measurement_label="melting point" experimental_result="164 to 169 °C"
molecule=CN(C)c1ccc2c(c1)Sc1cc(N(C)C=O)ccc1N2C=O measurement_label="melting point" experimental_result="139 to 143 °C"
molecule=CC(C)(C)OCCOc1cc(NC(=O)OC(C)(C)C)c(NC(=O)CC(=O)c2cccc(-n3ccnc3)c2)cc1-c1ccc(F)cc1 measurement_label="melting point" experimental_result="101 °C"
molecule="CCc1cnc(N2CCN(C(=O)c3ccccc3NC3(c4ccccc4)NC=Nc4ccccc43)CC2)nc1 (stereo unspecified)" measurement_label="melting point" experimental_result="> 250 °C"
molecule=Cc1cn(-c2ccc(N)cc2C(F)(F)F)cn1 measurement_label="melting point" experimental_result="141 to 143 °C"
molecule=O=C(O)COc1c(Br)cc(-c2c3ccccc3c(Br)c3sc4ccccc4c23)cc1Br measurement_label="melting point" experimental_result="259 to 261 °C"
molecule=Cc1ccc2[nH]c(=O)cc(CCO)c2c1 measurement_label="melting point" experimental_result="252 to 255 °C"
molecule=CCOC(=O)C(=CNc1nccs1)C(=O)c1c(Cl)cc(Cl)nc1Cl measurement_label="melting point" experimental_result="126 to 127 °C"

Q: # return recorded melting point for entry CN1CCN(C(=O)COC2c3ccccc3C(=O)N2c2ccc3ccc(Cl)nc3n2)CC1 (stereo unspecified)
Ans: 175 °C

Q: Query melting point for CCOC(=O)COc1ccc2ncnc(Nc3ccc(F)c(Cl)c3)c2c1
Ans: 161 to 163 °C

Q: Supply reported melting point belonging to this molecule: Cc1cc2c(c3c1C(c1ccc(C(C)C)cc1)CO3)CCCC2 (stereo unspecified)
Ans: 54 to 55 °C
